Test system: HaCaT (immortalized human keratinocytes)
Test: MTT cytotoxicity assay, HaCaT normal cells
Assay type: cell-based
Details: Homo sapiens, HaCaT, 72 h, read-out: IC50 HaCaT (normal cells)
Lab note: cut-off is 50 µM. Strictly less in IC50 is true. Exactly 50 µM or more is false.

Find out if reported IC50 for CCc1cc(=O)c2c(O)c3ccoc3c(OC)c2o1 [Compound 2] is less than 50 µM
true

Find out if reported IC50 for CCc1cc(=O)c2c(OCC(O)CNC(C)C)c3ccoc3c(OC)c2o1 (centres unmarked) [Compound 4] is less than 50 µM
true

Find out if reported IC50 for CCc1cc(=O)c2c(OCC(O)CN3CCC(C)CC3)c3ccoc3c(OC)c2o1 (centres unmarked) [Compound 5] is less than 50 µM
true

Find out if reported IC50 for CCc1cc(=O)c2c(OCC(O)CN3CCCCC3)c3ccoc3c(OC)c2o1 (centres unmarked) [Compound 7] is less than 50 µM
false

Find out if reported IC50 for CCc1cc(=O)c2c(OCC(O)CN3CCOCC3)c3ccoc3c(OC)c2o1 (centres unmarked) [Compound 9] is less than 50 µM
false

Find out if reported IC50 for CCc1cc(=O)c2c(OCC(O)CNC(C)(C)C)c3ccoc3c(OC)c2o1 (centres unmarked) [Compound 8] is less than 50 µM
true

Find out if reported IC50 for CCc1cc(=O)c2c(OCC(O)CN(CC)CC)c3ccoc3c(OC)c2o1 (centres unmarked) [Compound 3] is less than 50 µM
true
